Could you please report measured efflux ratio for the items listed next?
tested on: MDR1 (P-gp); test: Efflux ratio of permeability across basolateral to apical side over apical to basolateral side in dog MDCK-MDR1 cells; type: ADME, cell-based, Canis lupus familiaris
Numbers only.

Cc1ccc(C(=O)N[C@H]2CCOC[C@@H]2O)cc1Cc1ccc(-n2cccn2)cc1 ... 2.2
Cc1cnc(C(=O)N[C@H]2CCCC[C@@H]2O)cc1Cc1ccc(-n2cccn2)cc1 (single isomer, unassigned) ... 1.5
Cc1c(Cc2ccc(-n3cccn3)cc2)cc(C(=O)N[C@H]2CCCC[C@@H]2O)c(=O)n1C ... 2.7
Cc1c(Cc2ccc(-c3cocn3)cc2)cc(C(=O)N[C@H]2CCCC[C@@H]2O)c(=O)n1C ... 2.4
Cc1cc(N)c(C(=O)N[C@H]2CCOC[C@@H]2O)cc1Cc1ccc(-n2cccn2)cc1 (racemic) ... 1.9

Moving on to another molecule below.
Q) Value lookup for efflux ratio; key = Cc1cnc(C(=O)N[C@H]2CCOC[C@@H]2O)cc1Cc1ccc(-c2cscn2)cc1
A) 1.3

---

Kindly state Papp for each of the entries shown.
test: Permeability of compound in MDCKII-LE cells; format: ADME, cell-based, Canis lupus familiaris; conditions: dog, MDCK; read-out: permeability
Please give the number followed by its unit.

Consider the reported Papp for these compounds:
Cc1c(Cc2ccc(-c3cscn3)cc2)cc(C(=O)N[C@H]2CCCC[C@@H]2O)c(=O)n1C ... 17 ×10⁻⁶ cm/s
Cc1c(Cc2ccc(-n3cccn3)cc2)cc(C(=O)N[C@H]2CCOC[C@@H]2O)c(=O)n1C ... 20 ×10⁻⁶ cm/s
O=C(N[C@H]1CCOC[C@@H]1O)c1cc(Cc2ccc(-n3cccn3)cc2)ccn1 ... 24 ×10⁻⁶ cm/s
Cc1cc(N)c(C(=O)N[C@H]2CCOC[C@@H]2O)cc1Cc1ccc(-n2cccn2)cc1 (racemic) ... 19 ×10⁻⁶ cm/s
Cc1cc(F)c(C(=O)N[C@H]2CCOC[C@@H]2O)cc1Cc1ccc(-n2cccn2)cc1 ... 20 ×10⁻⁶ cm/s

For each listed entry, give its Papp.
1. Cc1c(Cc2ccc(-c3cocn3)cc2)cc(C(=O)N[C@H]2CCCC[C@@H]2O)c(=O)n1C
2. Cc1cnc(C(=O)N[C@H]2CCOC[C@@H]2O)cc1Cc1ccc(-c2cscn2)cc1
3. Cc1c(Cc2ccc(-n3cccn3)cc2)cc(C(=O)N[C@H]2CCCC[C@@H]2O)c(=O)n1C

A)
["26 ×10⁻⁶ cm/s", "22 ×10⁻⁶ cm/s", "23 ×10⁻⁶ cm/s"]
